Protocol summary: In vivo pharmacokinetic study in mice
Parameters: species or system CD-1 male mice
Condition parameters: male, CD-1, mouse, plasma, oral administration 2.5 mg/kg
Observation type: half-life
For clarity, give the value followed by its unit.

Fill blank: measured half-life of the molecule CCc1nc(C(N)=O)c(Nc2ccc(N3CCC4(CCN(C)CC4)CC3)c(C)c2)nc1NC1CCOCC1 is ____.
265 min

---

Protocol summary: In vivo pharmacokinetic study in mice
Parameters: species or system CD-1 male mice
Condition parameters: male, CD-1, mouse, plasma, iv, injection 1 mg/kg
Observation type: AUC(0-t) (µM·h)
// units = µM·h; emit number, no label

Fill blank: measured AUC(0-t) of the compound CCc1nc(C(N)=O)c(Nc2ccc(N3CCC4(CCN(C)CC4)CC3)c(C)c2)nc1NC1CCOCC1 is ____.
0.604

---

Protocol summary: In vivo pharmacokinetic study in mice
Parameters: species or system CD-1 male mice
Condition parameters: male, CD-1, mouse, plasma, oral administration 2.5 mg/kg
Observation type: bioavailability (%)
// units = %; emit number, no label

Fill blank: measured bioavailability of the compound CCc1nc(C(N)=O)c(Nc2ccc(N3CCC4(CCN(C)CC4)CC3)c(C)c2)nc1NC1CCOCC1 is ____.
37.3

---

Protocol summary: In vivo pharmacokinetic study in rats
Condition parameters: male, SD, rat, plasma, oral administration 2.5 mg/kg
Observation type: bioavailability (%)
// units = %; emit number, no label

Fill blank: measured bioavailability of the molecule CCc1nc(C(N)=O)c(Nc2ccc(N3CCC4(CCN(C)CC4)CC3)c(C)c2)nc1NC1CCOCC1 is ____.
44.7

---

Protocol summary: In vivo pharmacokinetic study in rats
Condition parameters: male, SD, rat, plasma, oral administration 2.5 mg/kg
Observation type: AUC(0-t) (µM·h)
// units = µM·h; emit number, no label

Fill blank: measured AUC(0-t) of the compound CCc1nc(C(N)=O)c(Nc2ccc(N3CCC4(CCN(C)CC4)CC3)c(C)c2)nc1NC1CCOCC1 is ____.
0.51

---

Protocol summary: In vivo pharmacokinetic study in rats
Condition parameters: male, SD, rat, plasma, iv, injection 1 mg/kg
Observation type: clearance (mL/min/kg)
// units = mL/min/kg; emit number, no label

Fill blank: measured clearance of the molecule CCc1nc(C(N)=O)c(Nc2ccc(N3CCC4(CCN(C)CC4)CC3)c(C)c2)nc1NC1CCOCC1 is ____.
61.2

---

Protocol summary: In vivo pharmacokinetic study in mice
Design: species or system CD-1 male mice
Condition parameters: male, CD-1, mouse, plasma, iv, injection 1 mg/kg, read-out: Vdss
Observation type: Vd (L/kg)
// units = L/kg; emit number, no label

Fill blank: measured Vd of the compound CCc1nc(C(N)=O)c(Nc2ccc(N3CCC4(CCN(C)CC4)CC3)c(C)c2)nc1NC1CCOCC1 is ____.
8.63

---

Protocol summary: In vivo pharmacokinetic study in rats
Condition parameters: male, SD, rat, plasma, iv, injection 1 mg/kg
Observation type: half-life (h)
// units = h; emit number, no label

Fill blank: measured half-life of the molecule CCc1nc(C(N)=O)c(Nc2ccc(N3CCC4(CCN(C)CC4)CC3)c(C)c2)nc1NC1CCOCC1 is ____.
2.99

---

Protocol summary: In vivo pharmacokinetic study in rats
Condition parameters: male, SD, rat, plasma, iv, injection 1 mg/kg
Observation type: AUC(0-t) (µM·h)
// units = µM·h; emit number, no label

Fill blank: measured AUC(0-t) of the compound CCc1nc(C(N)=O)c(Nc2ccc(N3CCC4(CCN(C)CC4)CC3)c(C)c2)nc1NC1CCOCC1 is ____.
0.457

---

Protocol summary: In vivo pharmacokinetic study in mice
Set-up: species or system CD-1 male mice
Condition parameters: male, CD-1, mouse, plasma, iv, injection 1 mg/kg
Observation type: clearance (mL/min/kg)
// units = mL/min/kg; emit number, no label

Fill blank: measured clearance of the compound CCc1nc(C(N)=O)c(Nc2ccc(N3CCC4(CCN(C)CC4)CC3)c(C)c2)nc1NC1CCOCC1 is ____.
48.5
